Tested on: LOX IMVI melanoma
Test: NCI tumour cell line growth inhibition, 48 h
assay readout: TGI

Batch of 3 molecules: report TGI for each.
1. COC(=O)Nc1nc2ccc(C(=O)c3cccc(I)c3)cc2[nH]1
2. CC1C(c2ccccc2)N(C)C(c2ccccc2)C(C)C1(O)c1ccccc1 (stereo unspecified)
3. CSc1nnnc2ccccc12

Solution:
1. 3.92 µM
2. > 100 µM
3. > 100 µM

For every item below, please supply its TGI.
1. CCOC(=O)C1=C(Nc2ccc(OC)cc2)C(N)=NC1=N
2. Cc1cc(I)cc(CN(C)CCCN2CCC(C)CC2)c1O
3. COC(=O)[C@]1(C)CCC[C@@]2(C)C3=C(CC[C@H]12)C[C@@H](CC(OC(C)=O)OC(C)=O)[C@@H](C)C3

Solution:
1. > 100 µM
2. 31.4 µM
3. > 50 µM
